Kindly supply the reported recombinant UMI read abundance (log10) values for the records listed here.
Experiment: recombinant UMI read abundance after kanamycin selection (control-corrected) (log10(CPM+1)); higher = more efficient recombination; extreme values may be limits of the assay; sequences stand for … in AGTGCAGAGAAAATCGGCCAGTTTTCTCTGCCTGCAGTCCGCATGCCGTGGGACCCCTTGGGTTCTAACCTGTTGCCTAGATTTATGCAGCGGACTGCCTTTCTCCCAAAGTGATAAACCGG…AGGTTGGTTTCACT; site = the 11-nt donor;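 note: IS621 bridge recombinase in Escherichia coli cells against a fixed T5 target plasmid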

Examples with their reported recombinant UMI read abundance (log10) follow.
>  <residue.codes>
CACGGCCCATGGACCGGTTTTCCCGGTAATCCGTATTTGTT (site CACGCCCCTAA)

>  <recombinant UMI read abundance (log10)>
0.0151

$$$$
>  <residue.codes>
TGCTAGGCATGGACCGGTTTTCCCGGTAATCCGTATTTGGG (site TGCTAGGCTGC)

>  <recombinant UMI read abundance (log10)>
0

$$$$

For every item below, please supply its recombinant UMI read abundance (log10).
1. ATCCAAGCATGGACCGGTTTTCCCGGTAATCCGTATTTGCG (site ATCCAAGCTCC)
2. CTAGTATCATGGACCGGTTTTCCCGGTAATCCGTATTTGAC (site CTAGTAACTGT)
3. CCAGGTGCATGGACCGGTTTTCCCGGTAATCCGTATTTGGT (site CCAGGTGCTAG)

Data returned:
0.00949
1.82
0
